These data points were gathered from patent US20130023553A1.

Target: human mu opioid receptor (Homo sapiens, UniProt P35372)
Construct: expressed in transfected cells; host or cells: CHO cells
Sequence (P35372 whole entry): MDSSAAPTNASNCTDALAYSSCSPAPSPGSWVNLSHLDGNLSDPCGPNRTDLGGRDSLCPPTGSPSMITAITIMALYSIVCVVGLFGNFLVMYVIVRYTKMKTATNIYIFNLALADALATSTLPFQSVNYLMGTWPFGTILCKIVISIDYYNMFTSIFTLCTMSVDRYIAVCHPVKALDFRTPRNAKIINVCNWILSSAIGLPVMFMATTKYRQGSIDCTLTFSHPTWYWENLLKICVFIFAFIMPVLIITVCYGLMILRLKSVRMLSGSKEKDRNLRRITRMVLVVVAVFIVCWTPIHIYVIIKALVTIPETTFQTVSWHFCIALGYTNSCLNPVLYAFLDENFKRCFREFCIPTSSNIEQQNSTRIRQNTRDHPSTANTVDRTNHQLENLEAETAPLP
Assay: cell-based
Details: maximal response at the highest tested concentration; read-out: % max effect, mu opioid receptor
measured endpoint: Emax (%)
I only need the number, in %, no unit after it.

What value of measured Emax is listed for COCCOCCOCCOCCOCCOCCOC1C=CC2C3Cc4ccc(OC)c5c4C2(CCN3C)C1O5 (stereo not drawn) ?
80

Next molecule: COCCOCCOC1CCC2(O)C3Cc4ccc(OC)c5c4C2(CCN3C)C1O5 (stereo not drawn) [α-6-mPEG2-O-hydroxycodone, α-6-mPEG2-O-oxycodone]
101

One more molecule: COCCOCCOCCOCCOCCOCCOCCOCCOCCOC1CCC2(O)C3Cc4ccc(OC)c5c4C2(CCN3C)C1O5 (stereo not drawn) [α-6-mPEG9-O-hydroxycodone, α-6-mPEG9-O-oxycodone]
95

Now try COCCOCCOCCOCCOC1C=CC2C3Cc4ccc(OC)c5c4C2(CCN3C)C1O5 (stereo not drawn) .
99

Try COCCOCCOCCOCCOCCOCCOCCOCCOCCOC1C=CC2C3Cc4ccc(O)c5c4C2(CCN3C)C1O5 (stereo not drawn) next.
87

Now the molecule COCCOCCOCCOCCOCCOCCOCCOC1C=CC2C3Cc4ccc(OC)c5c4C2(CCN3C)C1O5 (stereo not drawn)
75

---

Test: Pharmacokinetics following intravenous (IV) dosing
Assay type: in vivo, Sprague-Dawley rats
Details: male, Sprague-Dawley, rat, plasma; hydroxycodone series, 1 mg/kg IV, Mean ± SD
For each entry below, report its AUC value.
Form entry: value (µg·h/mL) — number only.

For COCCOCCOCCOCCOCCOC1CCC2(O)C3Cc4ccc(OC)c5c4C2(CCN3C)C1O5 (stereo not drawn) [α-6-mPEG5-O-hydroxycodone, α-6-mPEG5-O-oxycodone] , what is its reported AUC?
0.282

Query COCCOCCOCCOCCOCCOCCOC1CCC2(O)C3Cc4ccc(OC)c5c4C2(CCN3C)C1O5 (stereo not drawn) [α-6-mPEG6-O-hydroxycodone, α-6-mPEG6-O-oxycodone] next
0.21

What do you have for COCCOCCOCCOCCOC1CCC2(O)C3Cc4ccc(OC)c5c4C2(CCN3C)C1O5 (stereo not drawn) [α-6-mPEG4-O-hydroxycodone, α-6-mPEG4-O-oxycodone] ?
0.192

And the next one, COCCOCCOCCOC1CCC2(O)C3Cc4ccc(OC)c5c4C2(CCN3C)C1O5 (stereo not drawn) [α-6-mPEG3-O-hydroxycodone, α-6-mPEG3-O-oxycodone] ?
0.23

---

Experiment: Pharmacokinetics following intravenous (IV) dosing
Type: in vivo, Sprague-Dawley rats
Conditions: male, Sprague-Dawley, rat, plasma; hydroxycodone series, 1 mg/kg IV, Mean ± SD
Rule: measured MRT last below 50 min gets y; anything equal to or greater than 50 min gets n.

Take the compound COCCOCCOCCOCCOCCOCCOCCOCCOCCOC1CCC2(O)C3Cc4ccc(OC)c5c4C2(CCN3C)C1O5 (stereo not drawn) [α-6-mPEG9-O-hydroxycodone, α-6-mPEG9-O-oxycodone] and say whether its MRT last is less than 50 min.
n

# iterate: COCCOCCOCCOCCOCCOC1CCC2(O)C3Cc4ccc(OC)c5c4C2(CCN3C)C1O5 (stereo not drawn) [α-6-mPEG5-O-hydroxycodone, α-6-mPEG5-O-oxycodone]
y

What about this compound? COCCOCCOC1CCC2(O)C3Cc4ccc(OC)c5c4C2(CCN3C)C1O5 (stereo not drawn) [α-6-mPEG2-O-hydroxycodone, α-6-mPEG2-O-oxycodone]
y

Likewise for COCCOCCOCCOC1CCC2(O)C3Cc4ccc(OC)c5c4C2(CCN3C)C1O5 (stereo not drawn) [α-6-mPEG3-O-hydroxycodone, α-6-mPEG3-O-oxycodone] ?
y

How about COCCOCCOCCOCCOC1CCC2(O)C3Cc4ccc(OC)c5c4C2(CCN3C)C1O5 (stereo not drawn) [α-6-mPEG4-O-hydroxycodone, α-6-mPEG4-O-oxycodone] ?
y

Another: COCCOCCOCCOCCOCCOCCOCCOC1CCC2(O)C3Cc4ccc(OC)c5c4C2(CCN3C)C1O5 (stereo not drawn) [α-6-mPEG7-O-hydroxycodone, α-6-mPEG7-O-oxycodone]
n

# repeat for COCCOCCOCCOCCOCCOCCOC1CCC2(O)C3Cc4ccc(OC)c5c4C2(CCN3C)C1O5 (stereo not drawn) [α-6-mPEG6-O-hydroxycodone, α-6-mPEG6-O-oxycodone]
y

---

Experiment: Pharmacokinetics following oral (PO) dosing
Type: in vivo, Sprague-Dawley rats
Conditions: male, Sprague-Dawley, rat, plasma, po, 5 mg/kg
Assignment: determine reported MRT last for the given molecules.
// units = h; emit number, no label

# lookup: MRT last of COCCOCCOC1C=CC2C3Cc4ccc(OC)c5c4C2(CCN3C)C1O5 (stereo not drawn) [α-6-mPEG2-O-codeine]
1.03

Likewise for COCCOCCOCCOC1C=CC2C3Cc4ccc(OC)c5c4C2(CCN3C)C1O5 (stereo not drawn) [α-6-mPEG3-O-codeine] ?
1.18

Next record, please: COCCOCCOCCOCCOC1C=CC2C3Cc4ccc(OC)c5c4C2(CCN3C)C1O5 (stereo not drawn) [α-6-mPEG4-O-codeine]
1.4

Same again, this time with COCCOCCOCCOCCOCCOCCOCCOCCOCCOC1C=CC2C3Cc4ccc(OC)c5c4C2(CCN3C)C1O5 (stereo not drawn) [α-6-mPEG9-O-codeine]
2.98

Next molecule: COCCOCCOCCOCCOCCOCCOCCOC1C=CC2C3Cc4ccc(OC)c5c4C2(CCN3C)C1O5 (stereo not drawn) [α-6-mPEG7-O-codeine]
2.85

What do you get for COCCOCCOCCOCCOCCOC1C=CC2C3Cc4ccc(OC)c5c4C2(CCN3C)C1O5 (stereo not drawn) [α-6-mPEG5-O-codeine] ?
1.8

---

Test: Pharmacokinetics following intravenous (IV) dosing
Assay type: in vivo, Sprague-Dawley rats
Details: male, Sprague-Dawley, rat, plasma, iv, 1 mg/kg
Text: There were 3 rats/group. All animals were food fasted overnight. […] The predose sample was collected from the JVC. Following the last collection point, the animals were euthanized.
measured endpoint: MRT last (min)
Number in min, nothing else.

Which MRT last is reported for this molecule? COCCOCCOCCOC1C=CC2C3Cc4ccc(OC)c5c4C2(CCN3C)C1O5 (stereo not shown)
33.8

Same again, this time with COCCOCCOCCOCCOC1C=CC2C3Cc4ccc(OC)c5c4C2(CCN3C)C1O5 (stereo not shown)
27.5

Also need COCCOCCOCCOCCOCCOCCOCCOC1C=CC2C3Cc4ccc(OC)c5c4C2(CCN3C)C1O5 (stereo not shown) , thanks.
50.7

COCCOC1C=CC2C3Cc4ccc(OC)c5c4C2(CCN3C)C1O5 (stereo not shown) ?
32.2

Subsequent entry: COCCOCCOCCOCCOCCOCCOCCOCCOCCOC1C=CC2C3Cc4ccc(OC)c5c4C2(CCN3C)C1O5 (stereo not shown)
57.2

Can you check COCCOCCOCCOCCOCCOC1C=CC2C3Cc4ccc(OC)c5c4C2(CCN3C)C1O5 (stereo not shown) next?
31.8

Another: COCCOCCOC1C=CC2C3Cc4ccc(OC)c5c4C2(CCN3C)C1O5 (stereo not shown)
31.5

---

Molecular target: human mu opioid receptor (Homo sapiens)
Construct: expressed in transfected cells; host or cells: CHO cells
Experiment: cell-based
Conditions: maximal response at the highest tested concentration; read-out: % max effect, mu opioid receptor
measured endpoint: Emax (%)
Give the number; % is assumed, so skip it.

Consider the compound shown here: COCCOCCOC1C=CC2C3Cc4ccc(OC)c5c4C2(CCN3C)C1O5 (stereo not shown) What is its recorded Emax?
75

Please answer likewise for COCCOCCOCCOCCOCCOCCOCCOCCOCCOC1C=CC2C3Cc4ccc(OC)c5c4C2(CCN3C)C1O5 (stereo not shown)
80

Note, next up: COCCOCCOCCOCCOCCOC1C=CC2C3Cc4ccc(OC)c5c4C2(CCN3C)C1O5 (stereo not shown)
95

Another: COCCOCCOCCOCCOCCOCCOC1CCC2(O)C3Cc4ccc(OC)c5c4C2(CCN3C)C1O5 (stereo not drawn) [α-6-mPEG6-O-hydroxycodone, α-6-mPEG6-O-oxycodone]
102

Try this compound too: COCCOCCOCCOC1CCC2(O)C3Cc4ccc(OC)c5c4C2(CCN3C)C1O5 (stereo not drawn) [α-6-mPEG3-O-hydroxycodone, α-6-mPEG3-O-oxycodone]
108

Input COCCOCCOCCOCCOCCOCCOCCOC1CCC2(O)C3Cc4ccc(OC)c5c4C2(CCN3C)C1O5 (stereo not drawn) [α-6-mPEG7-O-hydroxycodone, α-6-mPEG7-O-oxycodone]
101

// next record COCCOC1CCC2(O)C3Cc4ccc(OC)c5c4C2(CCN3C)C1O5 (stereo not drawn) [α-6-mPEG1-O-hydroxycodone, α-6-mPEG1-O-oxycodone]
102

Can you check COCCOC1C=CC2C3Cc4ccc(OC)c5c4C2(CCN3C)C1O5 (stereo not shown) next?
80

Next compound: COCCOCCOCCOCCOCCOC1CCC2(O)C3Cc4ccc(OC)c5c4C2(CCN3C)C1O5 (stereo not drawn) [α-6-mPEG5-O-hydroxycodone, α-6-mPEG5-O-oxycodone]
108

Same read-out for COCCOCCOCCOC1C=CC2C3Cc4ccc(OC)c5c4C2(CCN3C)C1O5 (stereo not shown) ?
91
